Test system: Root-knot nematodes Meloidogyne spp. juveniles (J2)
experimental.protocol: whole plant or invertebrate
Assay type: in vivo
condition.parameters: 500 ppm; 70-100 J2 juveniles; 22±2° C., 70±5% RH; dead/inactive counted at 24, 48, 72 and 96 hours (time of rating not stated)
Description: The compound to be tested (4 mg) was dissolved in 40 μl of DMSO to make 100,000 PPM concentration stock solution. […] The nematode suspension (250 μl) having 70-100 juveniles (J2) of Root-knot nematodes Meloidogyne spp. pipetted out to each cell of 24 well bioassay plate. Sterile water (1 ml) was pipetted out in fresh 2.5 ml Eppendorf micro-centrifuge tubes. The desired concentration (500 ppm) of the compound was prepared by adding stock solution in 2.5 ml Eppendorf micro-centrifuge tubes. […]
metric: % Mortality Rating

Worked cases, answers included:
{"molecule": "N=C(N)NCCCC(N=CC=Cc1ccc(C(F)(F)F)cc1)C(=O)O (centres unmarked)", "metric": "% Mortality Rating", "result": "B (50-69)"}
{"molecule": "N=C(N)NCCCC(N=CC=Cc1ccc2scnc2c1)C(=O)O (centres unmarked)", "metric": "% Mortality Rating", "result": "A (70-100)"}
{"molecule": "N=C(N)NCCCC(N=CC=Cc1ccccn1)C(=O)O (centres unmarked)", "metric": "% Mortality Rating", "result": "A (70-100)"}
{"molecule": "N=C(N)NCCCC(N=CC=Cc1coc2ccccc12)C(=O)O (centres unmarked)", "metric": "% Mortality Rating", "result": "B (50-69)"}

Switching to the query record.
[ask] Give the value of % Mortality Rating reported for the following: N=C(N)NCCCC(N=CC=Cc1ccc2c[nH]cc2c1)C(=O)O (centres unmarked)
[reply] A (70-100)
